Experiment: Single ascending dose study in healthy subjects, pharmacokinetics of compound of Formula I
Assay type: in vivo, human
Conditions: human, plasma, mean, single oral dose 10 mg, 5 h
OBSERVED PROPERTY: concentration at 5 h (ng/mL)
Numbers only, in ng/mL.

QUERY: Tell me concentration at 5 h reported for CC(=O)Nc1nc(F)c(CN2CC[C@H](OCc3noc(C)n3)C[C@@H]2C)s1 [compound of Formula I]
RESULT: 81.7

---

Assay: Single ascending dose study in healthy subjects, pharmacokinetics of compound of Formula I
Type: in vivo, human
Conditions: human, plasma, mean, single oral dose 0.6 mg, 24 h
OBSERVED PROPERTY: concentration at 24 h (ng/mL)
Answers are plain numbers, in ng/mL.

QUERY: # return recorded concentration at 24 h for entry `CC(=O)Nc1nc(F)c(CN2CC[C@H](OCc3noc(C)n3)C[C@@H]2C)s1`
RESULT: 0.307

---

Experiment: Plasma concentration of compound of Formula I in the PET occupancy study
Assay type: in vivo
Details: human, single oral dose 0.25 mg, approx. 4 h, healthy subjects
OBSERVED PROPERTY: concentration at 4 h

QUERY: Return the recorded concentration at 4 h value; entry: `CC(=O)Nc1nc(F)c(CN2CC[C@H](OCc3noc(C)n3)C[C@@H]2C)s1`
RESULT: 0.367 ng/mL

---

Assay: Single ascending dose study in healthy subjects, pharmacokinetics of compound of Formula I
Type: in vivo, human
Conditions: human, plasma, single oral dose 0.6 mg, geometric mean (% CV), read-out: CLr (renal clearance) (converted)
OBSERVED PROPERTY: CL renal (mL/min)
One number for each entry, in mL/min.

QUERY: Provide one value: measured CL renal of `CC(=O)Nc1nc(F)c(CN2CC[C@H](OCc3noc(C)n3)C[C@@H]2C)s1`
RESULT: 19.5

---

Assay: Plasma concentration of compound of Formula I in the PET occupancy study
Assay type: in vivo
Details: human, single oral dose 5 mg, approx. 24 h, healthy subjects
OBSERVED PROPERTY: concentration at 24 h (ng/mL)
Numbers only, in ng/mL.

QUERY: Identify the reported concentration at 24 h for the following entry. `CC(=O)Nc1nc(F)c(CN2CC[C@H](OCc3noc(C)n3)C[C@@H]2C)s1`
RESULT: 3.07

---

Experiment: Single ascending dose study in healthy subjects, pharmacokinetics of compound of Formula I
Format: in vivo, human
Settings: human, plasma, single oral dose 0.15 mg, median, read-out: tmax
OBSERVED PROPERTY: Tmax (h)
Answers are plain numbers, in h.

QUERY: Give Tmax for the following compound: `CC(=O)Nc1nc(F)c(CN2CC[C@H](OCc3noc(C)n3)C[C@@H]2C)s1`
RESULT: 1.02

---

Experiment: Single ascending dose study in healthy subjects, pharmacokinetics of compound of Formula I
Format: in vivo, human
Details: human, plasma, mean, single oral dose 10 mg, 2 h
OBSERVED PROPERTY: concentration at 2 h (ng/mL)
Give bare numbers, in ng/mL.

QUERY: State, in one line, measured concentration at 2 h of CC(=O)Nc1nc(F)c(CN2CC[C@H](OCc3noc(C)n3)C[C@@H]2C)s1 [compound of Formula I]
RESULT: 125

---

Experiment: Plasma concentration of compound of Formula I in the PET occupancy study
Type: in vivo
Settings: human, single oral dose 5 mg, approx. 0.5 h, healthy subjects
OBSERVED PROPERTY: concentration at 0.5 h (ng/mL)
Numbers only, in ng/mL.

QUERY: State its concentration at 0.5 h for this molecule: `CC(=O)Nc1nc(F)c(CN2CC[C@H](OCc3noc(C)n3)C[C@@H]2C)s1`
RESULT: 32.4

FYI, the data here is from patent US20230338349A1.
